Reference for the values: patent US20150274802A1

- TARGET_ENTITY: human IGF-1 receptor (human, UniProt P08069 31-1367)
- METHOD_DESCRIPTION: cell-based or functional assay
Ends that are not written are not given here.
ENDPOINT_NAME: % IGF (%)

binder="IGF-1 A (H8 A9 N21):B(H5D10Y16L17) DPI A-COOH (ligand, not fully specified (C-terminus); ends and bridges not checked) chain 1: GIVDECCHASCDLRRLEMYCN-OH chain 2: GPEHLCGADLVDALYLVCGDRGFY" result_value=181
binder="IGF-1 A:B(D10Y16L17) DPI A-COOH (ligand, ends and bridges not checked) chain 1: GIVDECCFRSCDLRRLEMYCA-OH chain 2: GPETLCGADLVDALYLVCGDRGFY-NH2" result_value=112
binder="IGF-1 A (H8 A9 N21):B(H5D10Y16L17 A22) DPI A-COOH (ligand, not fully specified (C-terminus); ends and bridges not checked) chain 1: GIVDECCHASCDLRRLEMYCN-OH chain 2: GPEHLCGADLVDALYLVCGDAGFY" result_value=7.7
binder="IGF-1 A:B (H5D10Y16L17) DPI (ligand, cysteine pairing not given here) chain 1: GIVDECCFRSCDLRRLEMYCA-NH2 chain 2: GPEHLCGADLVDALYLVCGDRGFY-NH2" result_value=7.1
